Entry source: the Human Domainome abundance scans (Beltran et al. 2025)

B1: Membrane-associated guanylate kinase, WW and PDZ domain-containing protein 2, residues 601 to 682; numbered along this chain, Q86UL8 (parent)
chain: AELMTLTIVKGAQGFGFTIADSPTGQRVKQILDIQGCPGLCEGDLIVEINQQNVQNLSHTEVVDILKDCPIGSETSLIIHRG

variants of: B1; test: abundance fitness (aPCA) (normalised: wild type 0, dead -1); higher = more abundant; growth selection in yeast, the domain comes from the species named; conditions: Homo sapiens
Parameter: abundance fitness. Scope: all listed entries.

sequenceVariant	abundance fitness
I34G	-0.021
E74M	0.062
I65H	-0.242
L32G	0.021
I31L	0.011
S76W	-0.123
H80M	-0.23
